As shown below, each of these compounds has a reported Cell LXRβ efficacy value.
test-system: Gal4 DNA binding domain fused to the LBD of LXRβ in HEK293 cells (Homo sapiens (Human), UniProt P55055)
Sequence (P55055 222-460 limits assumed): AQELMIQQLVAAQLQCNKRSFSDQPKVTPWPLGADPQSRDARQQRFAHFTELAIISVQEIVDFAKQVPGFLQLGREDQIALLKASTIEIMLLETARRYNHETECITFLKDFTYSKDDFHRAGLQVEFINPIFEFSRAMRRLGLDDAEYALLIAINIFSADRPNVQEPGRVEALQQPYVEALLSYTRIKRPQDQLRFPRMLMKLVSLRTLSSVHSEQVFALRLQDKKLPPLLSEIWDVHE
experiment-description: cell-based
condition-parameters: Biological Test Example 2, agonist mode

Example entries and their recorded answers appear below.
CC1(C)CCC(O)(CN2CCN(c3cccc(S(C)(=O)=O)c3)C[C@@H]2c2ccccc2)CC1 [Cpd No 53-1]: 1030 (53) %
CC(C)C1CN(c2ccc(C#N)c(S(C)(=O)=O)c2)CCN1CC1CCC(C(F)(F)F)CC1 (centres unmarked) [50-2]: 542 (85) %
CS(=O)(=O)c1cccc(N2CCN(C[C@@H]3CCN(CC(F)(F)F)C3)[C@@H](c3ccccc3)C2)c1 (single isomer, unassigned) [48-61]: 467 (5) %
CO[C@]1(C(F)(F)F)CC[C@H](CN2CCN(c3ccc(CO)c(S(C)(=O)=O)c3)C[C@@H]2C(C)C)CC1 (single isomer, unassigned) [Cpd No 48-80]: 18 (99) %

Request: Record request: Cell LXRβ efficacy value, item CS(=O)(=O)c1cccc(N2CCN(C[C@H]3CCC(C(F)(F)F)OC3)[C@@H](c3ccc(F)cc3)C2)c1 (single isomer, unassigned) [49-10]
Result: 376 (37) %

* * *

test-system: Gal4 DNA binding domain fused to the LBD of LXRα in HEK293 cells (Homo sapiens (Human))
Sequence (Q13133 209-447): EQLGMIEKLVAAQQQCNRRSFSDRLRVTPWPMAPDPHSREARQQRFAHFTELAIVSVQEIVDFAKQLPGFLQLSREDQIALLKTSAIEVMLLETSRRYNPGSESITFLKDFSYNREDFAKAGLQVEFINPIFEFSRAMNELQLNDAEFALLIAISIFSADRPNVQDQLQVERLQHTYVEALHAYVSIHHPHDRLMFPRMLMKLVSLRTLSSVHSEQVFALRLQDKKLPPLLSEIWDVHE
experiment-description: LXR luciferase transcriptional reporter gene assay, agonist mode, LXRα
Assay type: cell-based
condition-parameters: agonist mode; read-out: Cell LXRα EC50
As shown below, each of these compounds has a reported pEC50 value.
The scale used: pEC50 is minus the common logarithm of the concentration in molar units.

Example entries and their recorded answers appear below.
CC1(C)CCC(CN2CCN(c3ccc(CO)c(S(C)(=O)=O)c3)C[C@H]2c2ccccc2)CC1 (single isomer, unassigned) [48-27]: 4.74
CC1(C)CCC(CN2CCN(c3ccc(CO)c(S(C)(=O)=O)c3)C[C@@H]2c2ccccc2)CC1 (single isomer, unassigned) [48-26]: 6.44

Let us move to another entry and its pEC50.
Request: Record request: pEC50 value, item CC(C)[C@@H]1CN(c2cccc(S(C)(=O)=O)c2)CCN1c1ccnc(C(F)(F)F)n1 [7-50]
Result: 5.69

* * *

As shown below, each of these molecules has a reported Cell LXRα efficacy value.
test-system: Gal4 DNA binding domain fused to the LBD of LXRα in HEK293 cells (Homo sapiens (Human))
experiment-description: LXR luciferase transcriptional reporter gene assay, agonist mode, LXRα
Type: cell-based

Example entries and their recorded answers appear below.
CC(C)[C@H]1CN(c2ccc(CO)c(S(C)(=O)=O)c2)CCN1Cc1ccc(C(F)(F)F)c(F)c1: 1280 (60) %
CS(=O)(=O)c1cc(N2CCN(C[C@H]3CC[C@@H](C(F)(F)F)CC3)[C@@H](c3ccccc3)C2)ccc1C(N)=O (single isomer, unassigned): 1648 (67) %
CS(=O)(=O)c1cccc(N2CCN(Cc3ccc(OC(F)(F)F)cc3)[C@@H](c3ccccc3)C2)c1 (single isomer, unassigned): 4367 (45) %

Request: Record request: Cell LXRα efficacy value, item CS(=O)(=O)c1cccc(N2CCN(Cc3ccc(C(F)(F)F)c(Cl)c3)C(C3CCCCC3)C2)c1 (stereo not shown)
Result: 1100 (77) %

Request: Next entry: CC(C)[C@@H]1CN(c2ccc(F)c(S(C)(=O)=O)c2)CCN1c1ncc(Cc2ccc(C(C)(C)O)cc2)c(C(F)(F)F)n1
Result: 2718 (7) %

Request: Next entry: CO[C@]1(C(F)(F)F)CC[C@H](CN2CCN(c3ccc(CO)c(S(C)(=O)=O)c3)C[C@@H]2C(C)C)CC1 (single isomer, unassigned)
Result: 27 (73) %

Request: Next entry: CO[C@@H](C)[C@@H]1CN(c2ccc(CO)c(S(C)(=O)=O)c2)CCN1c1ncc(CO)c(C(F)(F)F)n1 (single isomer, unassigned)
Result: 3106 (30) %

Request: Next entry: CC(C)[C@@H]1CN(c2ccc(F)c(S(C)(=O)=O)c2)CCN1c1ncc(C(F)(F)F)cc1[N+](=O)[O-]
Result: 3110 (46) %

Request: Next entry: CS(=O)(=O)c1cccc(N2CCN(C[C@H]3CC[C@@H](C(F)(F)F)OC3)[C@@H](c3ccc(F)cc3)C2)c1 (single isomer, unassigned)
Result: 1643 (32) %

Request: Next entry: CC(C)[C@@H]1CN(c2ccc(CO)c(S(C)(=O)=O)c2)CCN1c1nc(C(F)(F)F)c(C(=O)N(C)C)s1
Result: 465 (98) %
